Just for reference, patent US20250090699A1 is where these values come from.

- measured-target: mouse FAP (Mus musculus)
- Construct: biotinylated His, Avi tag, mouse FAP (26-761, FAP-M82Q5); His; Avi tag (biotinylated); purchased AcroBiosystems FAP-M82Q5
- protocol-notes: Surface plasmon resonance (SPR) for peptide affinity, mouse FAP
- Format: binding
Counter-ions that a name gives are not always drawn. Starred links: 1 amine or outer side, 2 acyl side, 3 side chain; linkers in the order of their positions; H or OH if unused. Non-standard residues stand in square brackets, D forms with d. Residues, ends and D or L forms follow the SMILES beside them. Groups on a side chain read outwards from the residue. *: point of attachment. DOTA = O=C(O)CN1CCN(CC(=O)O)CCN(CC(=O)*)CCN(CC(=O)O)CC1; Piperazinyl(4-CH2COOH) = O=C(O)CN1CCN(*)CC1; AEF = NCCOc1ccc(C[C@H](N)C(=O)O)cc1; NMeF = CN[C@@H](Cc1ccccc1)C(=O)O; dHyp = O=C(O)[C@H]1C[C@H](O)CN1; Ahp(2) = CCCCC[C@H](N)C(=O)O; hSer = N[C@@H](CCO)C(=O)O; CO = O=C([*:1])[*:2]
The entries below are paired with their reported Kd.
API: value field is a number in nM; no unit string.

Past entries and their recorded results:
{"columns": ["compound", "measured-target", "value-type", "quantitative-result"],
 "data": [
  ["CCCCC[C@@H]1NC(=O)[C@H](Cc2ccc(O)cc2)NC(=O)[C@H](Cc2ccccc2)N(C)C(=O)CNC(=O)CNC(=O)[C@H]2CCCN2C(=O)[C@H](CCO)NC(=O)[C@H](Cc2ccc(O)cc2)NC(=O)CNC(=O)[C@H](Cc2c[nH]c3ccccc23)NC1=O [Example A57] (cyclo([Ahp(2)]WGY[hSer][dP]GG[NMeF]Y))", "mouse FAP (Mus musculus)", "Kd", 19],
  ["CCCCC[C@@H]1NC(=O)[C@H](Cc2ccc(O)cc2)NC(=O)[C@H](Cc2ccccc2)N(C)C(=O)CNC(=O)[C@H](CC(=O)O)NC(=O)[C@H]2CCCN2C(=O)[C@H](CC(=O)O)NC(=O)[C@H](Cc2ccc(O)cc2)NC(=O)CNC(=O)[C@H](Cc2c[nH]c3ccccc23)NC1=O [Example A18] (cyclo([Ahp(2)]WGYD[dP]DG[NMeF]Y))", "mouse FAP (Mus musculus)", "Kd", 0.222],
  ["CCCCC[C@@H]1NC(=O)[C@H](Cc2ccc(O)cc2)NC(=O)[C@H](Cc2ccccc2)NC(=O)CNC(=O)[C@H](CCCCN)NC(=O)[C@H]2CCCN2C(=O)[C@H](CC(=O)O)NC(=O)[C@H](Cc2ccc(O)cc2)NC(=O)CNC(=O)[C@H](Cc2c[nH]c3ccccc23)NC1=O [Example A22, TFA salt] (cyclo([Ahp(2)]WGYD[dP]KGFY))", "mouse FAP (Mus musculus)", "Kd", 0.87],
  ["CCCCC[C@@H]1NC(=O)[C@H](Cc2ccc(O)cc2)NC(=O)[C@H](Cc2ccccc2)N(C)C(=O)CNC(=O)[C@@H](CO)NC(=O)[C@H]2CCCN2C(=O)[C@H](CC(=O)O)NC(=O)[C@H](Cc2ccc(O)cc2)NC(=O)CNC(=O)[C@H](Cc2c[nH]c3ccccc23)NC1=O [Example A69] (cyclo([Ahp(2)]WGYD[dP][dS]G[NMeF]Y))", "mouse FAP (Mus musculus)", "Kd", 0.222],
  ["CCCCC[C@@H]1NC(=O)[C@H](Cc2ccc(OCCNC(=O)CN3CCN(CC(=O)O)CCN(CC(=O)O)CCN(CC(=O)O)CC3)cc2)NC(=O)[C@H](Cc2ccccc2)N(C)C(=O)CNC(=O)[C@H](CCCCNC(=O)N2CCN(CC(=O)O)CC2)NC(=O)[C@H]2CCCN2C(=O)[C@H](CC(=O)O)NC(=O)[C@H](Cc2ccc(O)cc2)NC(=O)CNC(=O)[C@H](Cc2c[nH]c3ccccc23)NC1=O [Example B25] (cyclo([AEF](DOTA)[Ahp(2)]WGYD[dP]K([CO-Piperazinyl(4-CH2COOH)])G[NMeF]))", "mouse FAP (Mus musculus)", "Kd", 0.44]
]}

Enquiry: Recorded Kd for CCCCC[C@@H]1NC(=O)[C@H](Cc2ccc(O)cc2)NC(=O)[C@H](Cc2ccccc2)N(C)C(=O)CNC(=O)CNC(=O)[C@H]2CCCN2C(=O)[C@H](CC(N)=O)NC(=O)[C@H](Cc2ccc(O)cc2)NC(=O)CNC(=O)[C@H](Cc2c[nH]c3ccccc23)NC1=O [Example A58] (cyclo([Ahp(2)]WGYN[dP]GG[NMeF]Y)) , please?
Return: 75

Enquiry: Consider the compound CCCCC[C@@H]1NC(=O)[C@H](Cc2ccc(O)cc2)NC(=O)[C@H](Cc2ccccc2)N(C)C(=O)CNC(=O)[C@H](CCCCN)NC(=O)[C@H]2C[C@H](O)CN2C(=O)[C@H](CC(=O)O)NC(=O)[C@H](Cc2ccc(O)cc2)NC(=O)CNC(=O)[C@H](Cc2c[nH]c3ccccc23)NC1=O [Example A41, TFA salt] (cyclo([Ahp(2)]WGYD[dHyp]KG[NMeF]Y)) and give its measured Kd.
Return: 12

Enquiry: Would you kindly share the measured Kd for CCCCC[C@@H]1NC(=O)[C@H](Cc2ccc(O)cc2)NC(=O)[C@H](Cc2ccccc2)N(C)C(=O)CNC(=O)CNC(=O)[C@H]2CCCN2C(=O)[C@H](CC(=O)O)NC(=O)[C@H](Cc2ccc(O)cc2)NC(=O)CNC(=O)[C@H](Cc2c[nH]c3ccccc23)NC1=O [Example A52] (cyclo([Ahp(2)]WGYD[dP]GG[NMeF]Y)) ?
Return: 0.36

Enquiry: Given the entry CCCCC[C@@H]1NC(=O)[C@H](Cc2ccc(O)cc2)NC(=O)[C@H](Cc2ccccc2)N(C)C(=O)[C@@H](CO)NC(=O)CNC(=O)[C@H]2CCCN2C(=O)[C@H](CC(=O)O)NC(=O)[C@H](Cc2ccc(O)cc2)NC(=O)CNC(=O)[C@H](Cc2c[nH]c3ccccc23)NC1=O [Example A67] (cyclo([Ahp(2)]WGYD[dP]G[dS][NMeF]Y)) , report its measured Kd.
Return: 208

* * *

- measured-target: mouse FAP (Mus musculus)
- Construct: biotinylated His, Avi tag, mouse FAP (26-761, FAP-M82Q5); His; Avi tag (biotinylated); purchased AcroBiosystems FAP-M82Q5
- Sequence (P97321 26-761): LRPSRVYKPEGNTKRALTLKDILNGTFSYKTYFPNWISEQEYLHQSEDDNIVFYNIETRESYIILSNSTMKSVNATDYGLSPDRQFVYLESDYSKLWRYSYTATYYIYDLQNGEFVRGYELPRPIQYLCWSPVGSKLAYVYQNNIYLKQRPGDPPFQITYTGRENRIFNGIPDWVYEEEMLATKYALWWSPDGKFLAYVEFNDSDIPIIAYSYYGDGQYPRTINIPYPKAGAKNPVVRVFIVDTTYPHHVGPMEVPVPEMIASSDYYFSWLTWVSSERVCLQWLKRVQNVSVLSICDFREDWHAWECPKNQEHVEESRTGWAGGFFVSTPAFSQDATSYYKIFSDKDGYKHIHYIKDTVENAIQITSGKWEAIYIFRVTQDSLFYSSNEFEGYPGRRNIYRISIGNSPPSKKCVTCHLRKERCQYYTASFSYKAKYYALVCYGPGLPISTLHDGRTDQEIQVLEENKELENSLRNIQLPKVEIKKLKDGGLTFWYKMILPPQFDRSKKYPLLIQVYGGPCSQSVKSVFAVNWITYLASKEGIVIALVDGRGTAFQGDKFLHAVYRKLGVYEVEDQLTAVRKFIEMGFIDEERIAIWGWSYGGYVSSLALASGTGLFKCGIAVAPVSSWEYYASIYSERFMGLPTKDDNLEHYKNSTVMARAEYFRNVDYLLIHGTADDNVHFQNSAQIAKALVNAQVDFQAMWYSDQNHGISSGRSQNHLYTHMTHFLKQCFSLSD
- protocol-notes: Enzymatic FAP competition assay (Z-Gly-Pro-AMC fluorescence), mouse FAP
- Type: biochemical
- study-conditions: read-out: m. FAP, Enz., IC50
Starred links: 1 amine or outer side, 2 acyl side, 3 side chain; linkers in the order of their positions; H or OH if unused. Non-standard residues stand in square brackets, D forms with d. Primed or numbered codes have the meaning given here. *: point of attachment. F(4amPEG2NHDOTA-Lu) = lutetium complex of (S)-2,2',2''-(10-(1-(4-(2-amino-2-carboxyethyl)phenyl)-3,12-dioxo-5,8-dioxa-2,11-diazatridecan-13-yl)-1,4,7,10-tetraazacyclododecane-1,4,7-triyl)triacetic acid (Phe with 4-aminomethyl-PEG2-DOTA-Lu), O=C([O-])CN1CCN(CC(=O)[O-])CCN(CC(=O)NCCOCCOCC(=O)NCc2ccc(C[C@H](N[*:1])C(=O)[*:2])cc2)CCN(CC(=O)[O-])CC1.[Lu+3]; F(4OEtNHDOTA-Ga) = gallium complex of (S)-2,2',2''-(10-(2-((2-(4-(2-amino-2-carboxyethyl)phenoxy)ethyl)amino)-2-oxoethyl)-1,4,7,10-tetraazacyclododecane-1,4,7-triyl)triacetic acid (Phe with 4-O-ethylamino-DOTA-Ga), O=C([O-])CN1CCN(CC(=O)[O-])CCN(CC(=O)NCCOc2ccc(C[C@H](N[*:1])C(=O)[*:2])cc2)CCN(CC(=O)[O-])CC1.[Ga+3]; F(4amPEG2NHDOTA-Lu)″ = lutetium (S)-2,2',2''-(10-(1-(4-(2-amino-2-carboxyethyl)phenyl)-3,12-dioxo-5,8-dioxa-2,11-diazatridecan-13-yl)-1,4,7,10-tetraazacyclododecane-1,4,7-triyl)triacetic acid, O=C([O-])CN1CCN(CC(=O)[O-])CCN(CC(=O)NCCOCCOCC(=O)NCc2ccc(C[C@H](N[*:1])C(=O)[*:2])cc2)CCN(CC(=O)[O-])CC1.[Lu+3]; K(COpipzaa) = N6-(4-(carboxymethyl)piperazine-1-carbonyl)-L-lysine, O=C(NCCCC[C@H](N[*:1])C(=O)[*:2])N1CCN(CC(=O)[*:3])CC1; Q(Pyrro(2CN4F2)) = 2-amino-5-(2-cyano-4,4-difluoropyrrolidin-1-yl)-5-oxopentanoic acid; F4(METRIAZOLYLMENHDOTA-Lu) = Phe with 4-(methyl-triazolyl-methyl-NH-DOTA), Lu complex; COpipzaa = 4-(carboxymethyl)piperazine-1-carbonyl, O=C(O)CN1CCN(C(=O)*)CC1; F(4amPEG2NHRDOTAGA-Lu) = Phe with 4-aminomethyl-PEG2-NH-DOTAGA, Lu complex; X4 = 4‑(carboxymethyl)piperazine‑1‑carbonyl, O=C(O)CN1CCN(C(=O)*)CC1; F(4OEtNHRDOTAGA-Lu) = Phe with 4-O-ethyl-NH-DOTAGA, Lu complex; hS(Pr) = O-propyl-L-homoserine, CCCOCC[C@H](N[*:1])C(=O)[*:2]; NMeF = CN[C@@H](Cc1ccccc1)C(=O)O; Ahp(2) = CCCCC[C@H](N)C(=O)O
// reported IC50 per item
Write it as a number; the unit pM goes unstated.

In the examples that follow, each entry is paired with its recorded IC50.
{"columns": ["substance", "value-type", "quantitative-result"],
 "data": [
  ["Gly-Gly-NMePhe-F(4OEtNHRDOTAGA-Lu)-Ahp-Trp-Gly-Tyr-Asp-D-Pro (cyclo(GG[NMeF][F(4OEtNHRDOTAGA-Lu)][Ahp(2)]WGYD[dP]); also: Lu complex of DOTAGA) [Example C31]", "IC50", 27],
  ["Gly-Gly-NMePhe-F(4OEtNHDOTA-Ga)-Ahp-Trp-Gly-K(COpipzaa)-Asp-D-Pro (cyclo(GG[NMeF][F(4OEtNHDOTA-Ga)][Ahp(2)]WG[K(COpipzaa)]D[dP]); also: Ga complex of DOTA) [Example C50]", "IC50", 52],
  ["Gly-Gly-NMePhe-F(4amPEG2NHDOTA-Lu)-Q(Pyrro(2CN4F2))-Trp-Gly-K(COpipzaa)-Asp-D-Pro (cyclo(GG[NMeF][F(4amPEG2NHDOTA-Lu)][Q(Pyrro(2CN4F2))]WGK(COpipzaa)D[dP]); also: Lu complex) [Example C19]", "IC50", 31],
  ["Pro-Gly-NMePhe-F(4amPEG2NHDOTA-Lu)-hS(Pr)-Trp-Gly-K(COpipzaa)-Asp-D-Pro (cyclo(PG[NMeF][F(4amPEG2NHDOTA-Lu)″][hS(Pr)]WGK(X4)D[dP])) [Example C20]", "IC50", 30]
]}

Enquiry: Given the substance Gly-Gly-NMePhe-F4(METRIAZOLYLMENHDOTA-Lu)-Ahp-Trp-Gly-Tyr-Asp-D-Pro (cyclo(GG[NMeF][F4(METRIAZOLYLMENHDOTA-Lu)][Ahp(2)]WGYD[dP]); also: Lu complex) [Example C14] , what is its reported IC50?
Return: 24

Enquiry: Looking for the measured IC50 of Gly-Gly-NMePhe-F(4amPEG2NHRDOTAGA-Lu)-hS(Pr)-Trp-Gly-K(COpipzaa)-Asp-D-Pro (cyclo(GG[NMeF][F(4amPEG2NHRDOTAGA-Lu)][hS(Pr)]WGK(COpipzaa)D[dP]); also: Lu complex) [Example C33] , can you help?
Return: 26

Enquiry: Record request: IC50 value, item Gly-Gly-NMePhe-F(4amPEG2NHDOTA-Lu)-Ahp-Trp-Gly-Tyr-Asp-D-Pro (cyclo(GG[NMeF][F(4amPEG2NHDOTA-Lu)][Ahp(2)]WGYD[dP]); also: Lu complex) [Example C15]
Return: 9

Enquiry: // query IC50 value for entry Glu-Gly-NMe3PyA-F(4amPEG2NHDOTA-Lu)-hS(Pr)-W7N-Gly-K(COpipzaa)-Asp-D-Pro [Example C7]
Return: 34

Enquiry: Sample hSer-Gly-NMePhe-F(4amPEG2NHDOTA-Lu)-hS(Pr)-Trp-Gly-K(COpipzaa)-Asp-D-Pro [Example C4] — what was its IC50?
Return: 32
